Test system: SW480
Experiment: MTT cytotoxicity assay
Format: cell-based, human
Details: SI = IC50 for normal cell line (HaCaT)/IC50 cancer cell line
Friendly reminder: SI SW480 below 1 is 1 (yes), at or above is 0 (no).

Is SI SW480 strictly under 1 for the entry COc1cccc2c1OC(=O)C(C(=O)O[C@@H]1C[C@H](C)CC[C@H]1C(C)C)C2P(=O)(c1ccccc1)c1ccccc1 (mixture of isomers) ? 1 (yes)

Is SI SW480 strictly under 1 for the entry CC(C)[C@@H]1CC[C@@H](C)C[C@H]1OC(=O)c1cc2ccccc2oc1=O ? 0 (no)

Is SI SW480 strictly under 1 for the entry CC(C)[C@@H]1CC[C@@H](C)C[C@H]1OC(=O)c1cc2ccc(O)cc2oc1=O ? 0 (no)

Is SI SW480 strictly under 1 for the entry CC(C)[C@H]1CC[C@H](C)C[C@@H]1OC(=O)c1cc2ccccc2oc1=O ? 1 (yes)

Is SI SW480 strictly under 1 for the entry COc1cccc2cc(C(=O)O[C@@H]3C[C@H](C)CC[C@H]3C(C)C)c(=O)oc12 ? 0 (no)

Is SI SW480 strictly under 1 for the entry CC(C)[C@@H]1CC[C@@H](C)C[C@H]1OC(=O)C1C(=O)Oc2ccccc2C1P(=O)(c1ccccc1)c1ccccc1 (mixture of isomers) ? 0 (no)

Is SI SW480 strictly under 1 for the entry COc1ccc2cc(C(=O)O[C@@H]3C[C@H](C)CC[C@H]3C(C)C)c(=O)oc2c1 ? 1 (yes)

Is SI SW480 strictly under 1 for the entry COc1cccc2c1C(=O)c1c(O)c3c(c(O)c1C2=O)C[C@@](O)(C(=O)CO)C[C@@H]3O[C@H]1C[C@H](N)[C@H](O)[C@H](C)O1 [Doxorubicin, reference compound] ? 1 (yes)

---

Tested on: SW620
Experiment: MTT cytotoxicity assay
Format: cell-based, human
Conditions: SW-620; MTT, 72 h, human metastatic colon cancer
pIC50: −log10 of the molar value.
Record form. Attribute: pIC50. Fill in for each entry.

Provide only the value of recorded pIC50 for CCOC(=O)C1C(=O)Oc2ccccc2C1P(=O)(OCC)OCC (stereo not drawn) < 4.00

Provide only the value of recorded pIC50 for CC(C)[C@@H]1CC[C@@H](C)C[C@H]1OC(=O)c1cc2ccccc2oc1=O 4.24

Provide only the value of recorded pIC50 for CC(C)[C@H]1CC[C@H](C)C[C@@H]1OC(=O)c1cc2ccccc2oc1=O < 4.00

---

Tested on: PC3
Test: MTT cytotoxicity assay
Format: cell-based, human
Details: PC-3; MTT, 72 h, human metastatic prostate cancer
observation type: IC50 (µM)
Provide only the numeric value, understood in µM.

Provide only the value of recorded IC50 for CC(C)[C@@H]1CC[C@@H](C)C[C@H]1OC(=O)c1cc2ccccc2oc1=O 57.8

Provide only the value of recorded IC50 for CC(C)[C@@H]1CC[C@@H](C)C[C@H]1OC(=O)c1cc2ccc(O)cc2oc1=O 21.8

Provide only the value of recorded IC50 for COc1cccc2c1OC(=O)C(C(=O)O[C@@H]1C[C@H](C)CC[C@H]1C(C)C)C2P(=O)(c1ccccc1)c1ccccc1 (mixture of isomers) 9.9

Provide only the value of recorded IC50 for COc1cccc2cc(C(=O)O[C@@H]3C[C@H](C)CC[C@H]3C(C)C)c(=O)oc12 29.3

---

Tested on: SW480
Assay: MTT cytotoxicity assay
Format: cell-based, human
Conditions: MTT, 72 h, human primary colon cancer
observation type: pIC50
pIC50 is defined as minus the log10 of a concentration measured in mol/L.

Provide only the value of recorded pIC50 for N.N.[Cl][Pt][Cl] [Cisplatin, reference compound] 4.98

---

System: SW620
Assay: MTT cytotoxicity assay
Type: cell-based, human
Details: SW-620; MTT, 72 h, human metastatic colon cancer
pIC50: −log10 of the molar value.
observation type: pIC50

Provide only the value of recorded pIC50 for CCOC(=O)C1C(=O)Oc2ccccc2C1P(=O)(c1ccccc1)c1ccccc1 (stereo not drawn) < 4.00

Provide only the value of recorded pIC50 for O=C(OC1CCCCC1)c1cc2ccccc2oc1=O < 4.00

Provide only the value of recorded pIC50 for CCOP(=O)(OCC)c1cc2cccc(OC)c2oc1=O 4.99

---

Tested on: HaCaT
Assay: MTT cytotoxicity assay, normal cells
Assay type: cell-based
Conditions: HaCaT, 72 h, human immortal keratinocytes (normal cells)
pIC50: −log10 of the molar value.
Record form. Attribute: pIC50. Fill in for each entry.

Recall the reported pIC50 of O=C(OC1CCCCC1)c1cc2ccccc2oc1=O [Compound 1f] when tested on HaCaT. < 4.00

Recall the reported pIC50 of CCOP(=O)(OCC)C1C(=O)Oc2ccccc2C1P(=O)(c1ccccc1)c1ccccc1 (stereo not shown) [Compound 5a] when tested on HaCaT. < 4.00

Recall the reported pIC50 of CCOC(=O)C1C(=O)Oc2ccccc2C1P(=O)(c1ccccc1)c1ccccc1 (stereo not shown) [Compound 4c] when tested on HaCaT. < 4.00

Recall the reported pIC50 of COc1cccc2cc(P(=O)(c3ccccc3)c3ccccc3)c(=O)oc12 [Compound 3] when tested on HaCaT. < 4.00

These measurements were taken from paper PMC12529164.
